Would you mind telling me the reported normalized growth of each entry?
assay: chemical genetic growth profiling, strain panel (AID 1159580);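 further: tested at 20 µM; growth read once vehicle control cultures reached saturation at 30 °C; 1 = growth at the plate median or of vehicle wells; lower values mean less growth of the strain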; conditions: S. cerevisiae deletion strains, growth OD, locus YKR026C, strain gcn3, stronger effect = lower value
The whole screen tested about 5,500 compounds, of which about 2,000 (36%) were called active. Roughly 18% stayed inconclusive and do not appear here. The list shows a part of the results.
Numbers only.

The cases that follow already have their normalized growth on record.
molecule: CN1CCc2cc3c(cc2C1O)OCO3 (centres undefined)
recorded.measurement: 0.978
--
molecule: O=c1ccc2cc(O)c(O)cc2o1
recorded.measurement: 0.997
--
molecule: C1CCc2nnnn2CC1
recorded.measurement: 1.01
--
molecule: c1ccc(CN(CC2=NCCN2)c2ccccc2)cc1
recorded.measurement: 0.97
--
molecule: O=c1ccc2ccccc2o1
recorded.measurement: 0.972

For the 8 molecules below, give their normalized growth values.
1. CC(C)(CO)C(O)C(=O)NCCCO (centres undefined)
2. O=C(O)c1cc(=O)c2ccc(Cl)cc2[nH]1
3. CC(C)N(C(=O)CCl)c1ccccc1
4. Cc1ccc2c(c1)CC[C@H]1CC(=O)CC[C@]21C
5. COC(=O)[C@@H]1C(O)CC[C@H]2CN3CCc4c([nH]c5ccccc45)[C@@H]3C[C@@H]21 (some centres undefined)
6. COc1ccc2c(c1)[C@@]1(C)CCC(=O)C[C@H]1CC2
7. CN=C(NC#N)NCCSCc1nc[nH]c1C
8. COC(=O)C1[C@H]2C[C@H]3c4[nH]c5ccccc5c4CCN3C[C@@H]2CC[C@@H]1O (some centres undefined)

Response given:
1: 0.994; 2: 1.01; 3: 1.01; 4: 1.01; 5: 1.01; 6: 0.976; 7: 1; 8: 0.971

Challenge: What measured normalized growth goes with COc1cccc2c1CCC1CC(=O)CCC21C (centres undefined) ?
Response given: 0.992
